# TARGET SYSTEM: T1, recombinant human ASM protein (human, UniProt P17405 47-630)
# T1 construct: Recombinant human ASM in solution; also called acid sphingomyelinase (ASM) protein
# T1 sequence: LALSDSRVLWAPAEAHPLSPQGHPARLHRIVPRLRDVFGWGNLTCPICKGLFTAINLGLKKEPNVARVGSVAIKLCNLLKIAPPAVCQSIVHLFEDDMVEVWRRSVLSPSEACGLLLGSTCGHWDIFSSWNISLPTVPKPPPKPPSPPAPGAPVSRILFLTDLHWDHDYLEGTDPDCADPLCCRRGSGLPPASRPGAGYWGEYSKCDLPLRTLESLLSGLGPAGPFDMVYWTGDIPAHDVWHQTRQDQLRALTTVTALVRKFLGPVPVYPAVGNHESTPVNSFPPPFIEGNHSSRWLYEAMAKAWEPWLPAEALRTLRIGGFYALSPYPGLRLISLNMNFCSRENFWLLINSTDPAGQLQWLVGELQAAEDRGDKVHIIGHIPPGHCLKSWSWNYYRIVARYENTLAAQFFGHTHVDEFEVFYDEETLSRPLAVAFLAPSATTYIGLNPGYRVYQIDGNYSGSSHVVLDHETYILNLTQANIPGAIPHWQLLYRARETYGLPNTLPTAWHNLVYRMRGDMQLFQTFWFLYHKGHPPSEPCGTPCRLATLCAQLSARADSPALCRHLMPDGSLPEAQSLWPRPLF
# EXPERIMENTAL PROTOCOL: BLI (Octet), antibody on AHC sensor
koff overview

Incoming: Report koff for #9104v-L34 (antibody, human IgG4 S228P, lambda, V domains shown, Full-length IgG, lambda) VH: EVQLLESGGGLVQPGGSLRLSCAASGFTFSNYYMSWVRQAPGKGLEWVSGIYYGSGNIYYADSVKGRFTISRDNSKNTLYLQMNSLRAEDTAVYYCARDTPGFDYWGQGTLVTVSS VL: QSVLTQPPSASGTPGQRVTISCTGSSSNIGNNAVNWYQQLPGTAPKLLIYYDSYQASGVPDRFSGSKSGTSASLAISGLRSEDEADYYCGAWDYSLSAYVFGGGTKLTVLG please.
Outgoing: 0.000493 s⁻¹

Incoming: Report koff for #9104v-L28 (antibody, human IgG4 S228P, lambda, V domains shown, Full-length IgG, lambda) VH: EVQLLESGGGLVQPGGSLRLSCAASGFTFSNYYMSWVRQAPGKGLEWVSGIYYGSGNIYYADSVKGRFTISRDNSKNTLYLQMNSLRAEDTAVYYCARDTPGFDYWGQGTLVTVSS VL: QSVLTQPPSASGTPGQRVTISCTGSSSNIGNNAVNWYQQLPGTAPKLLIYYDSFRRSGVPDRFSGSKSGTSASLAISGLRSEDEADYYCGAWDYSLSAYVFGGGTKLTVLG please.
Outgoing: 0.000254 s⁻¹

Incoming: Report koff for #9104v-L23 (antibody, human IgG4 S228P, lambda, V domains shown, Full-length IgG, lambda) VH: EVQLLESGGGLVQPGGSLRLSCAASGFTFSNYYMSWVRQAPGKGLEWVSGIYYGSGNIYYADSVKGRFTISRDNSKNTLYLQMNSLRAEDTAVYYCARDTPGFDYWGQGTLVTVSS VL: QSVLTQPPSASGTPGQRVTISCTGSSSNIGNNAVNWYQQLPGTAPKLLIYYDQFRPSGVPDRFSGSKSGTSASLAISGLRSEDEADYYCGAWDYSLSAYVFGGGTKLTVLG please.
Outgoing: 0.000185 s⁻¹

Origin of values: patent US20260201064A1
